# methodDescription: Selectivity index, ratio of CC50 for human MT4 cells to EC50 for NRTI/NNRTI-resistant HIV1 L6 harboring reverse transcriptase V75I/F77L/K103N/F116Y/Q151M/M184V mutant
# Type: toxicity, cell-based
# assayConditions: read-out: Ratio CC50/EC50
Hi there, I'd appreciate the recorded selectivity ratio for every entry that follows.
Please give only the number in your answer, with no unit.

Problem: Determine its reported selectivity ratio: CC[C@H](C)[C@H](NC(=O)c1ccccc1[Se][Se]c1ccccc1C(=O)N[C@H](C(=O)O)[C@@H](C)CC)C(=O)O
Solution: 6

Problem: Determine its reported selectivity ratio: O=C(O)CNC(=O)c1ccccc1[Se][Se]c1ccccc1C(=O)NCC(=O)O
Solution: 34

Problem: Determine its reported selectivity ratio: O=C(O)CC[C@H](NC(=O)c1ccccc1[Se][Se]c1ccccc1C(=O)N[C@@H](CCC(=O)O)C(=O)O)C(=O)O
Solution: 16

----------
# methodDescription: Cytotoxicity against human CEM cells by XTT assay
# Assay type: cell-based, CCRF-CEM
readoutKind: CC50

Problem: Determine its reported CC50: CC[C@H](C)[C@H](NC(=O)c1ccccc1SSc1ccccc1C(=O)N[C@H](C(=O)O)[C@@H](C)CC)C(=O)O
Solution: > 120 µM

----------
Hi there, I'd appreciate the recorded CC50 at 120 h for every entry that follows.
# methodDescription: Cytotoxicity against human MT4 cells assessed as cell viability after 5 days by MTT assay
# Type: cell-based
The reply should contain only the number, in µM.

Problem: Determine its reported CC50 at 120 h: NS(=O)(=O)c1ccc(NC(=O)c2ccccc2[Se][Se]c2ccccc2C(=O)Nc2ccc(S(N)(=O)=O)cc2)cc1
Solution: 17.4

Problem: Determine its reported CC50 at 120 h: NS(=O)(=O)c1ccc(NC(=O)c2ccccc2SSc2ccccc2C(=O)Nc2ccc(S(N)(=O)=O)cc2)cc1
Solution: 10.5

Problem: Determine its reported CC50 at 120 h: CCOC(=O)CNC(=O)c1ccccc1[Se][Se]c1ccccc1C(=O)NCC(=O)OCC
Solution: 6.26

Problem: Determine its reported CC50 at 120 h: CC[C@H](C)[C@H](NC(=O)c1ccccc1[Se][Se]c1ccccc1C(=O)N[C@H](C(=O)OC)[C@@H](C)CC)C(=O)OC
Solution: 2.99

Problem: Determine its reported CC50 at 120 h: O=C(O)[C@@H]1CCCN1C(=O)c1ccccc1[Se][Se]c1ccccc1C(=O)N1CCC[C@H]1C(=O)O
Solution: 152

Problem: Determine its reported CC50 at 120 h: O=C(O)CC[C@H](NC(=O)c1ccccc1[Se][Se]c1ccccc1C(=O)N[C@@H](CCC(=O)O)C(=O)O)C(=O)O
Solution: 107

Problem: Determine its reported CC50 at 120 h: COC(=O)C[C@H](NC(=O)c1ccccc1[Se][Se]c1ccccc1C(=O)N[C@@H](CC(=O)OC)C(=O)OC)C(=O)OC
Solution: 9.74

----------
# methodDescription: Selectivity index, ratio of CC50 for human MT4 cells to EC50 for HIV1 3B
# Format: toxicity, cell-based
# assayConditions: read-out: Ratio CC50/EC50
readoutKind: selectivity ratio
Please give only the number in your answer, with no unit.

Problem: Determine its reported selectivity ratio: CC[C@H](C)[C@H](NC(=O)c1ccccc1[Se][Se]c1ccccc1C(=O)N[C@H](C(=O)O)[C@@H](C)CC)C(=O)O
Solution: 12

Problem: Determine its reported selectivity ratio: NS(=O)(=O)c1ccc(NC(=O)c2cccnc2[Se][Se]c2ncccc2C(=O)Nc2ccc(S(N)(=O)=O)cc2)cc1
Solution: 5

Problem: Determine its reported selectivity ratio: CC[C@H](C)[C@H](NC(=O)c1ccccc1[Se][Se]c1ccccc1C(=O)N[C@H](C(=O)OC)[C@@H](C)CC)C(=O)OC
Solution: 4

Problem: Determine its reported selectivity ratio: COC(=O)[C@H](C)NC(=O)c1ccccc1[Se][Se]c1ccccc1C(=O)N[C@@H](C)C(=O)OC
Solution: 5

Problem: Determine its reported selectivity ratio: NS(=O)(=O)c1ccc(NC(=O)c2ccccc2[Se][Se]c2ccccc2C(=O)Nc2ccc(S(N)(=O)=O)cc2)cc1
Solution: 6

Problem: Determine its reported selectivity ratio: CCOC(=O)CNC(=O)c1ccccc1[Se][Se]c1ccccc1C(=O)NCC(=O)OCC
Solution: 7

Just for reference, ChEMBL document CHEMBL3745620 is where these values come from.
